Across several studies, compounds have been characterized by their pKi on 5-hydroxytryptamine receptor 1A (Homo sapiens); a selection follows.
Sequence (P08908 whole entry): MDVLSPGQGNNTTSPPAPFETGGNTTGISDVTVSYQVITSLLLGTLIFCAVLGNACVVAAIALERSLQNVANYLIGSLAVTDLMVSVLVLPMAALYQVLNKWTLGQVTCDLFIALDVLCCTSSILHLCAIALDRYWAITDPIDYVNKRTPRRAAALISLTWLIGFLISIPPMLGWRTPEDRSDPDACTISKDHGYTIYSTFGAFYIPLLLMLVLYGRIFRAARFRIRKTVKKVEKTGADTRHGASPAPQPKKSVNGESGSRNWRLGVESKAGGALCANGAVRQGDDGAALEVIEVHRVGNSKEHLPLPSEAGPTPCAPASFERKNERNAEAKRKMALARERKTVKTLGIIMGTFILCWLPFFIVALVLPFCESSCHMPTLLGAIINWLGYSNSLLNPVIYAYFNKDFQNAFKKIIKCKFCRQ
Remember the convention: pKi equals -log10 of concentration in molar.

O=C(CCCCN1CCC(c2ccccc2)CC1)c1nc2ccccc2s1	8.14

Query for 5-hydroxytryptamine receptor 1A (Homo sapiens): what pKi does the record show for CC(C)c1ccccc1N1CCN(CCCCCC(=O)NCc2ccccc2)CC1 ?
6.86

Query for 5-hydroxytryptamine receptor 1A (Homo sapiens): what pKi does the record show for COc1cccc(N2CCN(CCCCNC(=O)c3ccccc3)CC2)n1 ?
8.22

Query for 5-hydroxytryptamine receptor 1A (Homo sapiens): what pKi does the record show for COc1ccc2[nH]cc(CCNCc3ccc(-c4cccc(O)c4)o3)c2c1 ?
7.19

Query for 5-hydroxytryptamine receptor 1A (Homo sapiens): what pKi does the record show for COc1ccccc1N1CCN(Cc2ccc(CN3C(=O)c4ccccc4S3(=O)=O)cc2)CC1 ?
7.11

Query for 5-hydroxytryptamine receptor 1A (Homo sapiens): what pKi does the record show for Cn1c(=O)cnn(CCCCN2CCN(c3cccc(Br)n3)CC2)c1=O ?
8.85
